measurement target: T1, P985_AMBPA (Amblyomma parvum, UniProt A0A023FT45 25-132)
T1 construct: His-tagged in BLI
T1 sequence: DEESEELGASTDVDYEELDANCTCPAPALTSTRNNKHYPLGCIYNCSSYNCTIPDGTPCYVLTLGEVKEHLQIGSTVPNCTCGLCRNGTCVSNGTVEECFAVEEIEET
assay remarks: BLI
recorded endpoint: pKd
One number for each entry, as −log10 of the molar value.

[in] Look at this binder and give its reported pKd. CCL24_HUMAN (ligand) VVIPSPCCMFFVSKRIPENRVVSYQLSSRSTCLKAGVIFTTKKGQQFCGDPKQEWVQRYMKNLDAKQKKASPRARAVA
[out] 7.39
